# credit: PubChem BioAssay (NCI)

System: IGROV1 ovarian
assay: NCI-60 one-dose screen, 48 h (100 = growth as untreated, 0 = no growth, -100 = all killed)
assayContext: 10 µM unless noted
The panel holds about 83,000 compounds, 20% with a hit somewhere; the sample as a whole holds those more often.
parameter: growth (%)
Value expressed in %; do not type the unit.

These recorded examples may help you get a feel for the data.
> print(dat)
                                   compound  targetortestsystem  parameter  unitofmeasure  val
1  Cc1ccc(-c2nc(/C=C3/C(=O)Nc4ccc(F)cc43)c3ccccn23)cc1      IGROV1 ovarian     growth              %   55
2  COC(=O)N1CC(Oc2ccccn2)C2CC1c1ccccc1O2 (centres undefined)      IGROV1 ovarian     growth              %  120

May I ask what growth has been recorded for Cc1ccc2nc(NC(=O)CSc3nc(-c4ccccc4)c(C#N)c4nnnn34)sc2c1 ?
102

Any idea what growth was measured for Cc1nc2c(c(=O)[nH]1)C(c1ccccc1)c1ccc3ccccc3c1O2 (centres undefined) ?
38.9
